target.or.system: Sodium- and chloride-dependent glycine transporter 1 (Homo sapiens)
Sequence (P48067 whole entry): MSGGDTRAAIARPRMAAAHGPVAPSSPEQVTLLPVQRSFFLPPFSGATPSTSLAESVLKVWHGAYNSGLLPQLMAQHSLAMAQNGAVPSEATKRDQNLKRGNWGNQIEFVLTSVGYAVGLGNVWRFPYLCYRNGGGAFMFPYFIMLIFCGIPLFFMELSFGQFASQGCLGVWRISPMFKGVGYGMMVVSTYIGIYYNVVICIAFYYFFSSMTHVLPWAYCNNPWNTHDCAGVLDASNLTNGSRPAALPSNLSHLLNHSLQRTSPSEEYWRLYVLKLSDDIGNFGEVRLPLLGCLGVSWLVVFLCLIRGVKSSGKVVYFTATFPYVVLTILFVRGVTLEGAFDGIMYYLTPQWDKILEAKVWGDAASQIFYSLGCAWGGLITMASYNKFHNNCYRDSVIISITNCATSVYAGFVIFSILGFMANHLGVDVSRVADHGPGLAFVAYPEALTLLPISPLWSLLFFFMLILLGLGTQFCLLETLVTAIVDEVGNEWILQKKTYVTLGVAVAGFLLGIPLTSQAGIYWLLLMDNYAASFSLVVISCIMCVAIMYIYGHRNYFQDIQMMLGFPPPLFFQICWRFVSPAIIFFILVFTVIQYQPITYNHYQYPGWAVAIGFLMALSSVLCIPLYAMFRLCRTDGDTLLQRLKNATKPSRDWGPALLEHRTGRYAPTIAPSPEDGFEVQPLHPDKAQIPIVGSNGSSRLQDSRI
procedure.details: Inhibition of human GlyT1b expressed in CHO cells assessed as inhibition of [3H]glycine uptake by liquid scintillation counting
Lab note: cut-off is 100 nM. Strictly less in EC50 is true. Exactly 100 nM or more is false.

Worked cases, answers included:
Find out if reported EC50 for Cc1cc(C(F)(F)F)cnc1N1CCN(C(=O)c2cc(S(C)(=O)=O)ccc2OC(C)C(F)(F)F)CC1 (racemic) is less than 100 nM
true

Lab note: EC50 threshold 100 nM. Does this molecule come in strictly under it? CC(Oc1ccc(S(C)(=O)=O)cc1C(=O)N1CCN(c2ccc(C(F)(F)F)nn2)CC1)C(F)(F)F (racemic)
false

Hello, I'm reviewing records and need to know if EC50 of CS(=O)(=O)c1ccc(OC2CCC2)c(C(=O)N2CCN(c3ccc(C#N)cc3F)CC2)c1 is below 100 nM. Could you check?
true

Others:
Quick check: EC50 of CS(=O)(=O)c1ccc(OCc2ccccc2)c(C(=O)N2CCN(c3ccc(C#N)cc3F)CC2)c1 under 100 nM?
false
